- ASSAY_OVERVIEW: Antibacterial activity against Leptospira interrogans serovar Canicola Hond Utrecht IV after 2 hrs by micro dilution assay
- Format: functional
Recorded MIC for the following molecules

Tell me the measured MIC of CCC1=C2C(=O)ON=C2CC(C)(C)O1 , please.
250 µg/mL

Item COc1ccc(C2=C3C(=O)ON=C3CC(C)(C)O2)cc1 has what recorded MIC?
250 µg/mL

Returns the measured MIC for the input molecule. Input: CC1(C)CC2=NOC(=O)C2=C(c2cccc3ccccc23)O1
250 µg/mL

###

- Tested on: Leptospira interrogans serovar Autumnalis
- ASSAY_OVERVIEW: Antibacterial activity against Leptospira interrogans serovar Autumnalis N2 at 250 ug/mL after 2 hrs by micro dilution assay
- Assay type: functional
Active and inactive are the calls of the source. The rule behind the calls is not given here.
// allowed return values: TRUE (active), FALSE (inactive)

CC1(C)CC2=NOC(=O)C2=C(c2cccc3ccccc23)O1    TRUE

What did the test return for CC1(C)CC2=NOC(=O)C2=C(c2ccccc2)O1 ?
FALSE

Tell me the assay call for COc1cc(OC)c2c(O)c3c(cc2c1)OC(C)(C)CC3=O please.
FALSE

Tell me the assay call for COc1cc(OC)c2c(O)c3c(cc2c1)OC(C)CC3=O (stereo unspecified) please.
FALSE

Any idea what this test logged for CC1(C)CC2=NOC(=O)C2=C(c2ccccc2Cl)O1 ?
FALSE

Hey, what did the test say about CC1(C)CC2=NOC(=O)C2=C(c2ccc(Cl)cc2)O1 ?
TRUE
